The entries below are paired with their reported Binding of serum 2 to looped/cyclic peptide (PEPSCAN-ELISA).
# Tested on: antibodies in sera from SARS patients (sera 1a, 1b, 2, 6, 37, 62, London, SARS-yellow, SARS-green)
# Type: binding, human
propertyMeasured: Binding of serum 2 to looped/cyclic peptide (PEPSCAN-ELISA)

{"recordSequence": "ICNLLLLFVTIYSHL", "resultValue": 0.4}
{"recordSequence": "GVAFLAVFQSATKII", "resultValue": 0.6}
{"recordSequence": "YSHLLLVAAGMEAQF", "resultValue": 0.5}
{"recordSequence": "QLALYKGFQFICNLL", "resultValue": 0.4}
{"recordSequence": "IALNKRWQLALYKGF", "resultValue": 0.5}
{"recordSequence": "QASLPFGWLVIGVAF", "resultValue": 0.2}
{"recordSequence": "FVTIYSHLLLVAAGM", "resultValue": 0.3}
{"recordSequence": "LFMRFFTLGSITAQP", "resultValue": 0.4}
{"recordSequence": "GFQFICNLLLLFVTI", "resultValue": 0.3}
{"recordSequence": "LFVTIYSHLLLVAAG", "resultValue": 0.4}
{"recordSequence": "RCWLCWKCKSKNPLL", "resultValue": 0.7}
{"recordSequence": "LLLFVTIYSHLLLVA", "resultValue": 0.4}
{"recordSequence": "KIIALNKRWQLALYK", "resultValue": 0.7}
{"recordSequence": "GWLVIGVAFLAVFQS", "resultValue": 0.7}
{"recordSequence": "AAGMEAQFLYLYALI", "resultValue": 0.5}
{"recordSequence": "ATKIIALNKRWQLAL", "resultValue": 0.5}
{"recordSequence": "ALYKGFQFICNLLLL", "resultValue": 0.3}
{"recordSequence": "ATATIPLQASLPFGW", "resultValue": 0.5}

====

# Test system: antibodies in sera from SARS patients (sera 1a, 1b, 2, 6, 37, 62, London, SARS-yellow, SARS-green)
# Format: binding, human
propertyMeasured: Binding of serum 1b to linear peptides of protein M of SARS-CoV Urbani

{"recordSequence": "FAAYNRYRIGNYKLN", "resultValue": 0.3}
{"recordSequence": "YSNRNRFLYIIKLVF", "resultValue": 0.5}
{"recordSequence": "SRTLSYYKLGASQRV", "resultValue": 0.5}

====

# Test system: control sera (pooled serum of ten healthy LUMC hospital workers; commercial negative donor pooled serum from the Dutch bloodbank)
# Assay type: binding, human
# Design: unit not given here
propertyMeasured: Binding of Control serum LUMC to linear peptides

{"recordSequence": "ELRFPRGQGVPINTN", "resultValue": 0.8}
{"recordSequence": "ITFGGPTDSTDNNQN", "resultValue": 0.6}
{"recordSequence": "RNSTPGSSRGNSPAR", "resultValue": 0.8}
{"recordSequence": "TYSTAWLCALGKVLP", "resultValue": 0.5}
{"recordSequence": "IQLSLLKVTAFQHQN", "resultValue": 0.7}
{"recordSequence": "GDGISTPKLKEDYQI", "resultValue": 0.5}
{"recordSequence": "QGLPNNTASWFTALT", "resultValue": 0.7}
{"recordSequence": "ATATIPLQASLPFGW", "resultValue": 0.7}
{"recordSequence": "GMEAQFLYLYALIYF", "resultValue": 0.6}
{"recordSequence": "DYQIGGYSEDRHSGV", "resultValue": 0.5}
{"recordSequence": "ALNKRWQLALYKGFQ", "resultValue": 0.6}
{"recordSequence": "RQEEVQQELYSPLFL", "resultValue": 0.6}
{"recordSequence": "FVTIYSHLLLVAAGM", "resultValue": 0.5}
{"recordSequence": "PSGTYEGNSPFHPLA", "resultValue": 0.7}
{"recordSequence": "PNNNAATVLQLPQGT", "resultValue": 0.6}
{"recordSequence": "FTSCELYHYQECVRG", "resultValue": 0.7}
{"recordSequence": "ATFFIFNKLVKDPPN", "resultValue": 0.5}
{"recordSequence": "TLPKGFYAEGSRGGS", "resultValue": 1.2}
{"recordSequence": "KSAAEASKKPRQKRT", "resultValue": 0.7}
{"recordSequence": "GTRHTYQLRARSVSP", "resultValue": 0.6}
{"recordSequence": "SKKPRQKRTATKQYN", "resultValue": 0.7}

====

# Tested on: rabbit serum obtained by immunizing a rabbit with the SARS-CoV strain Frankfurt 1
# Format: binding
# Set-up: unit not given here
propertyMeasured: Binding of a rabbit serum to linear peptides

{"recordSequence": "ALYKGFQFICNLLLL", "targetUnderTest": "rabbit serum obtained by immunizing a rabbit with the SARS-CoV strain Frankfurt 1", "resultValue": 0.6}
{"recordSequence": "LLLFVTIYSHLLLVA", "targetUnderTest": "rabbit serum obtained by immunizing a rabbit with the SARS-CoV strain Frankfurt 1", "resultValue": 0.1}
{"recordSequence": "RIGTQVLKTMSLYMA", "targetUnderTest": "rabbit serum obtained by immunizing a rabbit with the SARS-CoV strain Frankfurt 1", "resultValue": 0.4}
{"recordSequence": "TIPLQASLPFGWLVI", "targetUnderTest": "rabbit serum obtained by immunizing a rabbit with the SARS-CoV strain Frankfurt 1", "resultValue": 0.1}
{"recordSequence": "STALQELLIQQWIQF", "targetUnderTest": "rabbit serum obtained by immunizing a rabbit with the SARS-CoV strain Frankfurt 1", "resultValue": 0.3}
{"recordSequence": "ATATIPLQASLPFGW", "targetUnderTest": "rabbit serum obtained by immunizing a rabbit with the SARS-CoV strain Frankfurt 1", "resultValue": 0.1}
{"recordSequence": "MPTTLFAGTHITMTT", "targetUnderTest": "rabbit serum obtained by immunizing a rabbit with the SARS-CoV strain Frankfurt 1", "resultValue": 0.7}
{"recordSequence": "YCIPYNSVTDTIVVT", "targetUnderTest": "rabbit serum obtained by immunizing a rabbit with the SARS-CoV strain Frankfurt 1", "resultValue": 0.1}
{"recordSequence": "QVLKTMSLYMAISPK", "targetUnderTest": "rabbit serum obtained by immunizing a rabbit with the SARS-CoV strain Frankfurt 1", "resultValue": 0.1}

====

# Tested on: antibodies in sera from SARS patients (sera 1a, 1b, 2, 6, 37, 62, London, SARS-yellow, SARS-green)
# Format: binding, human
propertyMeasured: Binding of serum SARS-yellow to linear peptides of protein M of SARS-CoV Urbani

{"recordSequence": "FLWLLWPVTLACFVL", "resultValue": 0.1}
{"recordSequence": "ETNILLNVPLRGTIV", "resultValue": 0.1}
{"recordSequence": "RYRIGNYKLNTDHAG", "resultValue": 0.2}
{"recordSequence": "PETNILLNVPLRGTI", "resultValue": 0.3}
{"recordSequence": "GTIVTRPLMESELVI", "resultValue": 0.2}
{"recordSequence": "YRIGNYKLNTDHAGS", "resultValue": 0.1}
{"recordSequence": "KQLLEQWNLVIGFLF", "resultValue": 0.2}
{"recordSequence": "LEQWNLVIGFLFLAW", "resultValue": 0.1}
{"recordSequence": "IMLLQFAYSNRNRFL", "resultValue": 0.2}
{"recordSequence": "WSFNPETNILLNVPL", "resultValue": 1.1}
{"recordSequence": "TDSGFAAYNRYRIGN", "resultValue": 0.0}
{"recordSequence": "RPLMESELVIGAVII", "resultValue": 0.1}
{"recordSequence": "QRVGTDSGFAAYNRY", "resultValue": 0.1}
{"recordSequence": "SNRNRFLYIIKLVFL", "resultValue": 0.3}

====

# Tested on: control sera (pooled serum of ten healthy LUMC hospital workers; commercial negative donor pooled serum from the Dutch bloodbank)
# Type: binding, human
# Set-up: unit not given here
Assign labels as follows, please: y for Binding of Control serum LUMC to linear peptides of the protein M of SARS-CoV Urbani below 0.4; n for Binding of Control serum LUMC to linear peptides of the protein M of SARS-CoV Urbani equal to or exceeding 0.4.

{"recordSequence": "WSFNPETNILLNVPL", "labelClass": "n"}
{"recordSequence": "ELKQLLEQWNLVIGF", "labelClass": "n"}
{"recordSequence": "MWLSYFVASFRLFAR", "labelClass": "y"}
{"recordSequence": "WIMLLQFAYSNRNRF", "labelClass": "y"}
{"recordSequence": "KQLLEQWNLVIGFLF", "labelClass": "n"}
{"recordSequence": "ARTRSMWSFNPETNI", "labelClass": "n"}
{"recordSequence": "LRGTIVTRPLMESEL", "labelClass": "n"}
{"recordSequence": "FAAYNRYRIGNYKLN", "labelClass": "y"}

====

# Test system: control sera (pooled serum of ten healthy LUMC hospital workers; commercial negative donor pooled serum from the Dutch bloodbank)
# Assay type: binding, human
# Design: unit not given here
The entries below are paired with their reported Binding of Control serum Blood-bank to linear peptides of the protein M of SARS-CoV Urbani.
propertyMeasured: Binding of Control serum Blood-bank to linear peptides of the protein M of SARS-CoV Urbani

{"recordSequence": "IKDLPKEITVATSRT", "resultValue": 0.6}
{"recordSequence": "AGHPLGRCDIKDLPK", "resultValue": 1.1}
{"recordSequence": "LRGTIVTRPLMESEL", "resultValue": 0.5}
{"recordSequence": "KLNTDHAGSNDNIAL", "resultValue": 0.9}
{"recordSequence": "FRLFARTRSMWSFNP", "resultValue": 0.8}
{"recordSequence": "FLFLAWIMLLQFAYS", "resultValue": 0.5}
{"recordSequence": "QWNLVIGFLFLAWIM", "resultValue": 0.7}
{"recordSequence": "SRTLSYYKLGASQRV", "resultValue": 0.9}
{"recordSequence": "DSGFAAYNRYRIGNY", "resultValue": 0.5}
